# assay.notes: Pharmacokinetics in rats (half-life)
# Format: in vivo, rat (male Sprague Dawley)
# condition: rat, blood, read-out: T 1/2 in Rats (converted)
# Description: Per Os Pharmacokinetics in Rats--Procedure: The animals are housed, fed and cared for according to the Guidelines of the Canadian Council on Animal Care. Male Sprague Dawley rats (325-375 g) are fasted overnight prior to each PO blood level study. The rats are placed in the restrainer one at a time and the box firmly secured. […] Immediately after sampling, blood is centrifuged, separated, put into clearly marked vials and stored in a freezer until analysed. […]
The reader will find reported half-life values listed item by item below.
observation.type: half-life

{"molecule": "CC1(C)OC(=O)C(c2ccc(F)cc2)=C1c1ccc(S(C)(=O)=O)cc1 [Compound T3-1, reference compound]", "observation.type": "half-life", "observed": "> 1440 min"}
{"molecule": "CCCC1(C)OC(=O)C(c2ccc(F)cc2)=C1c1ccc(S(C)(=O)=O)cc1 (stereo not drawn) [n]", "observation.type": "half-life", "observed": "~60 min"}
{"molecule": "CC1(C)OC(=O)C(c2ccc(F)c(F)c2)=C1c1ccc(S(C)(=O)=O)cc1 [Compound T3-2, reference compound]", "observation.type": "half-life", "observed": "> 1440 min"}

###

# tested.target: COX-1 (Homo sapiens)
# Sequence (P23219 24-599): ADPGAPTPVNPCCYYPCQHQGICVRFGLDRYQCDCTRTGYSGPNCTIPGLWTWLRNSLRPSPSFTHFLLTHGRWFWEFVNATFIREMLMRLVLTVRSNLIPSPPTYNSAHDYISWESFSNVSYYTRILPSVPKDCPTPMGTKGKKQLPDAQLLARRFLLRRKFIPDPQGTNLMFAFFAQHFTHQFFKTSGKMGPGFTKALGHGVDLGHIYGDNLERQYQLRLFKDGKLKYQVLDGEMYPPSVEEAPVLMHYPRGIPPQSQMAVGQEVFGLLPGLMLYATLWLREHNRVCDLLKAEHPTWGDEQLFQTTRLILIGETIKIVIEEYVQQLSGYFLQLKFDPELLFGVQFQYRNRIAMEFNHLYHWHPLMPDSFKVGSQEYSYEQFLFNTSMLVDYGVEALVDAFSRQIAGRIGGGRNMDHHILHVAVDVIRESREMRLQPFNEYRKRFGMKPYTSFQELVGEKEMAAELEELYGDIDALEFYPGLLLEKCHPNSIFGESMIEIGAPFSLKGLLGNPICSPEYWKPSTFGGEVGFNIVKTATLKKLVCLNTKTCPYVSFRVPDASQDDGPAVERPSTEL
# assay.notes: Assay of COX-1 activity from U937 cell microsomes
# Type: biochemical
# Design: Assay of COX-1 Activity from U937 cell microsomes; endogenous in cells; host or cells: U937 cells, 100,000 x g microsomal fraction
# condition: read-out: U937 Cox-1 (IC50, inhibition of PGE2 production)
# Procedure: Assay of COX-1 Activity from U937 cell microsomes U 937 cells are pelleted by centrifugation at 500 x g for 5 min and washed once with phosphate-buffered saline and repelleted. […] Compounds of the present invention are inhibitors of COX-2 and are thereby useful in the treatment of COX-2 mediated diseases as enumerated above. […] In the assay, inhibition is determined by measuring the amount of prostaglandin E2 (PGE2) synthesized in the presence of arachidonic acid, COX-1 or COX-2 and a putative inhibitor. […]
pIC50: −log10 of the molar value.
The reader will find reported pIC50 values listed item by item below.

{"compound": "CC1(C)OC(=O)C(c2ccc(F)c(F)c2)=C1c1ccc(S(C)(=O)=O)cc1 [Compound T3-2, reference compound]", "pIC50": "4.52 to 5.00"}
{"compound": "CCCC1(C)OC(=O)C(c2ccc(F)cc2)=C1c1ccc(S(C)(=O)=O)cc1 (stereo not drawn) [n]", "pIC50": "< 5.00"}
{"compound": "CCC1(C)OC(=O)C(c2ccccc2)=C1c1ccc(S(C)(=O)=O)cc1 (stereo not drawn) [a]", "pIC50": "5.00 to 5.52"}
